Below are MIC values recorded for Staphylococcus aureus ATCC 25923.
Field format: number, assumed µM, no unit text.

Example molecules with recorded MIC:
| smiles_str | MIC, µM |
| --- | --- |
| CC[C@H](C)[C@H](NC(=O)[C@H](Cc1ccccc1)NC(=O)[C@H](CCCCN)NC(=O)[C@H](CCCCN)NC(=O)[C@H](C)NC(=O)[C@H](CC(C)C)NC(=O)[C@H](CC(N)=O)NC(=O)[C@@H](NC(=O)[C@H](CC(C)C)NC(=O)[C@@H](NC(=O)[C@H](CC(=O)O)NC(=O)[C@H](CC(C)C)NC(=O)[C@H](Cc1ccccc1)NC(=O)[C@@H](N)CC(N)=O)[C@@H](C)O)[C@@H](C)CC)C(N)=O | 50 |
| CC[C@H](C)[C@H](N)C(=O)N[C@@H](CC(C)C)C(=O)N[C@@H](C)C(=O)N[C@@H](Cc1c[nH]c2ccccc12)C(=O)N[C@@H](CCCCN)C(=O)N[C@@H](Cc1c[nH]c2ccccc12)C(=O)N[C@@H](C)C(=O)N[C@@H](Cc1c[nH]c2ccccc12)C(=O)N[C@@H](Cc1c[nH]c2ccccc12)C(=O)N[C@@H](C)C(=O)N[C@@H](Cc1c[nH]c2ccccc12)C(=O)N[C@@H](CCCN=C(N)N)C(=O)N[C@@H](CCCN=C(N)N)C(N)=O | 2.19 |
| NC(=O)[C@H](CCCN=C(N)N)NC(=O)[C@H](Cc1c[nH]c2ccccc12)NC(=O)[C@H](CCCN=C(N)N)NC(=O)[C@H](Cc1c[nH]c2ccccc12)NC(=O)[C@@H](N)CCCN=C(N)N | 58.2 |

Now, please, on to the next molecule.
Qu. Would you kindly share the measured MIC for CC[C@H](C)[C@H](NC(=O)[C@H](CCCN=C(N)N)NC(=O)[C@H](CCCN=C(N)N)NC(=O)[C@H](Cc1c[nH]c2ccccc12)NC(=O)[C@@H](N)CCCN=C(N)N)C(=O)N[C@H](C(=O)N[C@H](C(=O)N[C@H](C(=O)N[C@@H](CCCN=C(N)N)C(=O)N[C@H](C(=O)N[C@@H](CCCN=C(N)N)C(=O)N[C@@H](CCCN=C(N)N)C(N)=O)C(C)C)[C@@H](C)CC)C(C)C)C(C)C ?
Ans. 256
